Here, each record is paired with measured Emax data.
Target: RXRα (Homo sapiens)
Construct: expressed in transfected cells
Sequence (P19793 whole entry): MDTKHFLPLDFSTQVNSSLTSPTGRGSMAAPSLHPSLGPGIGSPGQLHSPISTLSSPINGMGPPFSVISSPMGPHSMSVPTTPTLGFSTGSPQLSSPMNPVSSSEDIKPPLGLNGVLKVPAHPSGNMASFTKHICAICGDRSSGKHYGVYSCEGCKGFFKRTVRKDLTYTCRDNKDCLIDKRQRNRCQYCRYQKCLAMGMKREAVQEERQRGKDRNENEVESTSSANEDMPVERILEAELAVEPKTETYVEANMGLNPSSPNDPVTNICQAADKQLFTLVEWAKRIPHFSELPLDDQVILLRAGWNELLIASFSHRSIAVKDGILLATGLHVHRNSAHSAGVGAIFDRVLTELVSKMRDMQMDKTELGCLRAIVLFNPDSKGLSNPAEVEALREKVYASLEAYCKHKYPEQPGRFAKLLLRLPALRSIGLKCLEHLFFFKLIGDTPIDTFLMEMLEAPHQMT
Experiment: holoreceptor transactivation assay, RXRα
Assay type: cell-based
Settings: relative to 10^-6 M cyclopropyl penta-2,4-dienoic acid reference (RXRs); read-out: % efficacy (RXRα transactivation)
Param answer (str): number followed by unit.

Return Emax (reported value) for this compound: CC(C)c1cc(N(c2ccc(C(=O)O)cc2)C(C)C)cc2c1OCC2(C)C [Compound 43]
66%

Return Emax (reported value) for this compound: CCN(c1ccc(C(=O)O)cc1)c1cc(C(C)(C)C)c2c(c1)C(C)(C)CO2 [Compound 32]
103%

Return Emax (reported value) for this compound: CCc1cc(N(CC)c2ccc(C(=O)O)cc2)cc2c1OCC2(C)C [Compound 29]
117%

Return Emax (reported value) for this compound: Cc1c(N(c2ccc(C(=O)O)cc2)C(C)C)cc2c(c1C(C)(C)C)OCC2(C)C [Compound 73]
92%
